# Tested on: T1, HLA DQA1*0102:DQB1*0602, P01920
# T1 chain 1: not shown
# T1 chain 2: not shown
# Experimental details: REVEAL class II binding assay (cell-free)
Everything with REVEAL 24 hours (% of positive control signal) lower than 0.4 is not met; everything else, including exactly 0.4, is met.

Please review the following examples before continuing.
SGAAGAAVKGVGTMV (modifications not checked) [Peptide #6 (Common CP sequence)] | not met
VGKMIGGIGRFYIQM (modifications not checked) [Peptide #5 (Common CP sequence)] | met
ALNRGSGSGIITSDA (modifications not checked) [Peptide #17 (Hemagglutinin fragment)] | not met
RELILYDKEEMRRIWRQANNG (modifications not checked) [Peptide #2 (X181 NP fragment)] | met

Task: Record AMERNAGSGIIISDT (modifications not checked) [Peptide #16 (Hemagglutinin fragment)] ; criterion: REVEAL 24 hours (% of positive control signal) no lower than 0.4. Met?
Output: not met
